The entries below come with measured fold changes relative to vehicle control values attached.
molecular target: HeLa cell extract proteins (Homo sapiens, UniProt Q5T4S7); construct: endogenous in cells; host or cells: HeLa cell extract; assay type: binding; settings: protein UBR4; HeLa
Sequence (Q5T4S7 whole entry): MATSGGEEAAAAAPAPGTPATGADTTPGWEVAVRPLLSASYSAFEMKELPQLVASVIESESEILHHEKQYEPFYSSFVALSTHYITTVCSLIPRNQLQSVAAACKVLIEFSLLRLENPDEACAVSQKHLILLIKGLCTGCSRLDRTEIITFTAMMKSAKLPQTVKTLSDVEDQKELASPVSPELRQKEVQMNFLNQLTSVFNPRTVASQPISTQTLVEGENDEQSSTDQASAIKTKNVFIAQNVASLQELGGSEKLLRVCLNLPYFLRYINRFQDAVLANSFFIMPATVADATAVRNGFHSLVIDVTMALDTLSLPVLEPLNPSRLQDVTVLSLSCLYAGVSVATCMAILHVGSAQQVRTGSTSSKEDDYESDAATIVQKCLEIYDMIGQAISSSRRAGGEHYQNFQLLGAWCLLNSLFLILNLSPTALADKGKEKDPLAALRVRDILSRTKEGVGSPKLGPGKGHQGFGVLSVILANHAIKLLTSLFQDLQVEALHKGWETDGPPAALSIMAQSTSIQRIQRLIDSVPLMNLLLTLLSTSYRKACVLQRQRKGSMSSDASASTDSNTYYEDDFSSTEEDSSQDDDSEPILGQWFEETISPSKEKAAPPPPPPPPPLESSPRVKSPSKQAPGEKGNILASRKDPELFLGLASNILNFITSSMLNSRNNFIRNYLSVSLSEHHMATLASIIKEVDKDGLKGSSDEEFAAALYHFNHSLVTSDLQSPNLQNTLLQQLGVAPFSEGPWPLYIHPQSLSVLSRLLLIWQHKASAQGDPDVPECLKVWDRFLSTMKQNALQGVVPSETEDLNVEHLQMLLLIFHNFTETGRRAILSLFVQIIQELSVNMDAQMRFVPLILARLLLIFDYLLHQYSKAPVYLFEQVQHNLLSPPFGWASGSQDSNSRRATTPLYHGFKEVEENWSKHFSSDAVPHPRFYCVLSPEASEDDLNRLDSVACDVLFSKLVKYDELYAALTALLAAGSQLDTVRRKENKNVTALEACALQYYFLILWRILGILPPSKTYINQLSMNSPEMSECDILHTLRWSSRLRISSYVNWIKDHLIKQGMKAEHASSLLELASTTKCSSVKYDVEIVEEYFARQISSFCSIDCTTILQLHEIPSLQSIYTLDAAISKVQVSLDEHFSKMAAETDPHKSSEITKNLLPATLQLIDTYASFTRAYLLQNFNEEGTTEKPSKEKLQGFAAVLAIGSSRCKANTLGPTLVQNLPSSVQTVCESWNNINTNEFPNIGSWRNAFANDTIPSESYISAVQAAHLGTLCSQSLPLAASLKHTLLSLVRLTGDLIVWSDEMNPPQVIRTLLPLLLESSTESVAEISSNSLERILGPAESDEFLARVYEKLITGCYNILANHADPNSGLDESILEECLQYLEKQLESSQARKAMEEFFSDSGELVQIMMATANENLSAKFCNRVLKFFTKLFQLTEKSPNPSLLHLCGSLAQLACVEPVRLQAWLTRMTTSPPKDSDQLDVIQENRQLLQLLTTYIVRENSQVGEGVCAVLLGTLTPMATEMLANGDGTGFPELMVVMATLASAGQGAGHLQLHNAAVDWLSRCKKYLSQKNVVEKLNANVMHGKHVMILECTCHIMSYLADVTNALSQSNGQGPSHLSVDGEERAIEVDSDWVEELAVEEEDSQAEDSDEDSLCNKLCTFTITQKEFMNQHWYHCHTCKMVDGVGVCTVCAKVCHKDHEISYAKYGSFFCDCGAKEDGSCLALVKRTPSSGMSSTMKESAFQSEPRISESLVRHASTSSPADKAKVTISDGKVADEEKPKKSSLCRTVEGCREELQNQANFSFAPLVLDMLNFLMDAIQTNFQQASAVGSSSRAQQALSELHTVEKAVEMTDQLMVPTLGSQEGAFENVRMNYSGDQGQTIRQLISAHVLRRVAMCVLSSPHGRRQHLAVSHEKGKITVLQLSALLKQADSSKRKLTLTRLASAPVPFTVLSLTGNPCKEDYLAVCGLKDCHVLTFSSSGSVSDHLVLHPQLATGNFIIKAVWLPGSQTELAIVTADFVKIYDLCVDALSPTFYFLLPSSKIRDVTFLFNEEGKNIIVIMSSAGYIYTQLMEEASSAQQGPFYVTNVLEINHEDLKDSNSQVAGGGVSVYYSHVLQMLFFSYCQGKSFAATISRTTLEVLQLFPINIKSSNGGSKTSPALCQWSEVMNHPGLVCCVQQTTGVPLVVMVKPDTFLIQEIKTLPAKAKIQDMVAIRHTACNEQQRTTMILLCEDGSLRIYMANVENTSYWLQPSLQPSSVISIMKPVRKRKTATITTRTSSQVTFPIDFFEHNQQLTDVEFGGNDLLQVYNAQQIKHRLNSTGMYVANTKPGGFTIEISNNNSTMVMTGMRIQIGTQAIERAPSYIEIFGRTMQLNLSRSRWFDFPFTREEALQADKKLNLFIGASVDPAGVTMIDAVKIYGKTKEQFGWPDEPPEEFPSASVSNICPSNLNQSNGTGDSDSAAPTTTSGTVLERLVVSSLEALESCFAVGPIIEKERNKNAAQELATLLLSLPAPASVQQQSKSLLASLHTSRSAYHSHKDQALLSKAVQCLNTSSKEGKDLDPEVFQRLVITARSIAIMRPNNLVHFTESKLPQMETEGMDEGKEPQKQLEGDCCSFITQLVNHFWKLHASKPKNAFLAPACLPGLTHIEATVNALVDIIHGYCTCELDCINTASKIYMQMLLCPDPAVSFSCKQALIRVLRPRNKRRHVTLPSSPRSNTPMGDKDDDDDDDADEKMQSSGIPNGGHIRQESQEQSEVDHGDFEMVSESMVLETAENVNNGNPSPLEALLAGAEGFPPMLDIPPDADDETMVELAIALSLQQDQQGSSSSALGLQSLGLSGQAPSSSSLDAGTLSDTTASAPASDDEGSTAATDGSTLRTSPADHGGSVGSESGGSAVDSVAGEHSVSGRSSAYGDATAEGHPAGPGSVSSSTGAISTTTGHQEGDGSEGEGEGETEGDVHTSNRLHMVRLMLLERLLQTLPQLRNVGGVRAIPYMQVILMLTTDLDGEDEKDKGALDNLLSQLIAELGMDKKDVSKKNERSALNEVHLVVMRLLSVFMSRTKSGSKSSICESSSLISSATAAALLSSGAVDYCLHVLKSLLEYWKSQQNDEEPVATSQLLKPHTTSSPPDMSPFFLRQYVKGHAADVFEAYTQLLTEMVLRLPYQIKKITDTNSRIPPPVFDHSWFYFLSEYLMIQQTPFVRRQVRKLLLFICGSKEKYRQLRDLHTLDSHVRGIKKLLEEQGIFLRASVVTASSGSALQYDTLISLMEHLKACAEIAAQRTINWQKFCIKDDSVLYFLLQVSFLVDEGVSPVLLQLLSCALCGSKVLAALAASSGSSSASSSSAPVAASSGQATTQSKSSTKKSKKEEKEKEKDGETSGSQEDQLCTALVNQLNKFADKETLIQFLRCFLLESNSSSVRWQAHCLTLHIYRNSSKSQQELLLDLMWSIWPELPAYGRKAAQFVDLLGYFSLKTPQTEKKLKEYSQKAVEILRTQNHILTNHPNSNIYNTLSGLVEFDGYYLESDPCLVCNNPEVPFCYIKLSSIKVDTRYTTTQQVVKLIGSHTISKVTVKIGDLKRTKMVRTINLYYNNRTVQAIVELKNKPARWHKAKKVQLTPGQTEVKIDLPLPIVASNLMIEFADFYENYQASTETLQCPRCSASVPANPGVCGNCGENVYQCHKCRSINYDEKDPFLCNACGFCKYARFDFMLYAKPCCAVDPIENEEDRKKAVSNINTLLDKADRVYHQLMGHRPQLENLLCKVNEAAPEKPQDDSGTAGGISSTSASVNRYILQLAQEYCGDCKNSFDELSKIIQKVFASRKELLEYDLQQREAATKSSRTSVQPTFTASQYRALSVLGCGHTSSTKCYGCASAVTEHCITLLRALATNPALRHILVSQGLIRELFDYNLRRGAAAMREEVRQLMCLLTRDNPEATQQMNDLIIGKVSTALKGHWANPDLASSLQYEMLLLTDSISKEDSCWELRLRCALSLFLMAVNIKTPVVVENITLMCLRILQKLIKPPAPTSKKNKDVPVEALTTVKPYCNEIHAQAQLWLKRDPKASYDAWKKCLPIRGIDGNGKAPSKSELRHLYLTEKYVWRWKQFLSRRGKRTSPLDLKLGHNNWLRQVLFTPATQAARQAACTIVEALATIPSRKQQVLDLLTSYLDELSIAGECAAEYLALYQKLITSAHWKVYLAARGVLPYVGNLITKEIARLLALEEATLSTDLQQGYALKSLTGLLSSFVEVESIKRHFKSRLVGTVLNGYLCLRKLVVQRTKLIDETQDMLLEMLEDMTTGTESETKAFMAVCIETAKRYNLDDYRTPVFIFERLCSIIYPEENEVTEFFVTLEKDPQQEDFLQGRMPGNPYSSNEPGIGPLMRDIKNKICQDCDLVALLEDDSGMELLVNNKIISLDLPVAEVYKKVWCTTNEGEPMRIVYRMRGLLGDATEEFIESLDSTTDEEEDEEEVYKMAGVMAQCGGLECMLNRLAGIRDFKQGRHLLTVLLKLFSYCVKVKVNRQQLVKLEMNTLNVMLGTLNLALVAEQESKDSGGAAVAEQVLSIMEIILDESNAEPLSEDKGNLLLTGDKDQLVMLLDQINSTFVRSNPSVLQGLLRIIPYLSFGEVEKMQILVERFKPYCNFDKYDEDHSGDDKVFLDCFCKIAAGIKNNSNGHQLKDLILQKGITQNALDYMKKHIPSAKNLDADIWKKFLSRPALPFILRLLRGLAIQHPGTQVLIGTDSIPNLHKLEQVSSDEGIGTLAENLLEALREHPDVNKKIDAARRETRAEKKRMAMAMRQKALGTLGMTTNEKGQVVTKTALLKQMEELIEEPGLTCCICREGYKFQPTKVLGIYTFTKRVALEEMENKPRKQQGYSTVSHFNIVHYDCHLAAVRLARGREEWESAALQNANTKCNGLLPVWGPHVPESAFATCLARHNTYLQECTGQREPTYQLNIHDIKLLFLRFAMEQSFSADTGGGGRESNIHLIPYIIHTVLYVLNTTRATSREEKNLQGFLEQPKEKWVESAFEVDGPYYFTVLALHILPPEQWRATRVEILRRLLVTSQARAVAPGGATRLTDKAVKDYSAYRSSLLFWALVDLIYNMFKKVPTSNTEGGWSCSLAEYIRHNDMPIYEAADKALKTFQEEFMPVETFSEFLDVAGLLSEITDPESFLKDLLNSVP
Just the number, please, no unit after it.

The examples below pair each entry with its known result.
>>> readout_value("Nc1nc2c(c(=O)[nH]1)N(C=O)C(CNc1ccc(C(=O)N[C@@H](CCC(=O)O)C(=O)O)cc1)CN2 (stereo partly drawn) [LEU, leucovorin]")
1.02
>>> readout_value("Nc1nc2cccc(-c3ccccc3)c2n1Cc1ccc(Cl)c(Cl)c1 [compound 3]")
1.08
>>> readout_value("CCCCCCOc1cccc(Cc2cnc(N)nc2N)c1 [compound 2]")
1.19
>>> readout_value("NCCCNc1ccc(C(=O)NC(CCC(=O)O)C(=O)O)cc1 (stereo not drawn) [compound 7]")
1.02
>>> readout_value("NCCOCCOCC(=O)Nc1nc2ncc(CNc3ccc(C(=O)NC(CCC(=O)O)C(=O)O)cc3)nc2c(=O)[nH]1 (stereo not drawn) [compound 6]")
0.42

Kindly consider the entry below.
Prompt: Quick one: fold changes relative to vehicle control for CCCCCCOc1ccc(Cc2cnc(N)nc2N)cc1 [compound 1] ?
Completion: 1.14
